Procedure summary: Cytotoxicity against rat PC12 cells assessed as cell viability at CC50 after 24 hrs by MTT assay relative to control
Assay type: cell-based, PC-12
Experimental conditions: read-out: Activity
Observable: viability at 24 h (%)
Numeric answer only, unit % assumed.

Known viability at 24 h results, listed for orientation:
Structure	Measurement units	viability at 24 h
COc1cccc(N2CCN(CC#CCOC(=O)c3sc4ncnc(N5CCOCC5)c4c3C)CC2)c1	%	50
Cc1c(C(=O)OCC#CCN2CCN(c3ccc(Br)cc3C#N)CC2)sc2ncnc(N3CCCCC3)c12	%	51.2
Cc1ccc(C#N)c(N2CCN(CC#CCOC(=O)c3sc4ncnc(N5CCOCC5)c4c3C)CC2)c1	%	49.1
Cc1c(-c2nnc(-c3ccccc3)o2)sc2ncnc(N3CCOCC3)c12	%	50.4
Cc1c(-c2nnc(-c3ccc(Cl)cc3)o2)sc2ncnc(N3CCOCC3)c12	%	51.1
Cc1c(-c2nnc(-c3ccccc3)o2)sc2ncnc(N3CCCCC3)c12	%	54.1
Cc1c(C(=O)OCC#CCN2CCN(c3cc(C4CC4)ccc3C#N)CC2)sc2ncnc(N3CCOCC3)c12	%	49.9
COc1ccc(N2CCN(CC#CCOC(=O)c3sc4ncnc(N5CCCCC5)c4c3C)CC2)cc1	%	49.4

Asked: # input compound: "COc1ccc(N2CCN(CC#CCOC(=O)c3sc4ncnc(N5CCOCC5)c4c3C)CC2)cc1" ; wanted: its viability at 24 h
Given back: 49.1

Asked: // repeat for "Cc1ccc(C#N)c(N2CCN(CC#CCOC(=O)c3sc4ncnc(N5CCCCC5)c4c3C)CC2)c1" and report
Given back: 49

Asked: // repeat for "Cc1c(-c2nnc(-c3ccc(Cl)cc3)o2)sc2ncnc(N3CCCCC3)c12" and report
Given back: 48.9

###

Procedure summary: Cytotoxicity against rat PC12 cells after 24 hrs by MTT assay
Type: cell-based, PC-12
Experimental conditions: read-out: MNCC
Observable: MNTC at 24 h
Kindly report the value followed by its unit.

Known MNTC at 24 h results, listed for orientation:
Structure	Measured
COc1cccc(N2CCN(CC#CCOC(=O)c3sc4ncnc(N5CCCCC5)c4c3C)CC2)c1	96 µg/mL
COc1ccc(-c2nnc(-c3sc4ncnc(N5CCCCC5)c4c3C)o2)cc1	100 µg/mL
Cc1ccc(-c2nnc(-c3sc4ncnc(N5CCCCC5)c4c3C)o2)cc1	110 µg/mL
Cc1c(C(=O)OCC#CCN2CCN(c3ccc(Br)cc3C#N)CC2)sc2ncnc(N3CCOCC3)c12	100 µg/mL
Cc1c(C(=O)OCC#CCN2CCN(c3cc(C4CC4)ccc3C#N)CC2)sc2ncnc(N3CCOCC3)c12	150 µg/mL

Now for the compound whose MNTC at 24 h we want.
Asked: # input compound: "Cc1c(-c2nnc(-c3ccc([N+](=O)[O-])cc3)o2)sc2ncnc(N3CCOCC3)c12" ; wanted: its MNTC at 24 h
Given back: 80 µg/mL

###

Procedure summary: Cytotoxicity against rat PC12 cells after 24 hrs by MTT assay
Type: cell-based, PC-12
Experimental conditions: read-out: MNCC
Observable: MNTC at 24 h (µg/mL)
Numeric answer only, unit µg/mL assumed.

Structure	Measurement units	Measured
COc1ccc(-c2nnc(-c3sc4ncnc(N5CCOCC5)c4c3C)o2)cc1	µg/mL	120
Cc1c(-c2nnc(-c3ccccc3)o2)sc2ncnc(N3CCCCC3)c12	µg/mL	100
Cc1c(-c2nnc(-c3ccc(Cl)cc3)o2)sc2ncnc(N3CCCCC3)c12	µg/mL	136
Cc1c(-c2nnc(-c3ccc([N+](=O)[O-])cc3)o2)sc2ncnc(N3CCCCC3)c12	µg/mL	125

Now for the compound whose MNTC at 24 h we want.
Asked: # input compound: "Cc1c(-c2nnc(-c3ccccc3)o2)sc2ncnc(N3CCOCC3)c12" ; wanted: its MNTC at 24 h
Given back: 160

###

Quick reference: CC50 at 24 h of the listed items.
Procedure summary: Cytotoxicity against rat PC12 cells after 24 hrs by MTT assay
Format: cell-based, PC-12
Numeric answer only, unit mg/L assumed.

Known CC50 at 24 h results, listed for orientation:
Structure	Measurement units	CC50 at 24 h
Cc1c(-c2nnc(-c3ccccc3)o2)sc2ncnc(N3CCCCC3)c12	mg/L	146
Cc1c(-c2nnc(-c3ccc(Cl)cc3)o2)sc2ncnc(N3CCCCC3)c12	mg/L	151

Asked: # input compound: "Cc1ccc(-c2nnc(-c3sc4ncnc(N5CCOCC5)c4c3C)o2)cc1" ; wanted: its CC50 at 24 h
Given back: 86.1

Asked: // repeat for "COc1ccc(-c2nnc(-c3sc4ncnc(N5CCOCC5)c4c3C)o2)cc1" and report
Given back: 140

Asked: // repeat for "COc1cccc(N2CCN(CC#CCOC(=O)c3sc4ncnc(N5CCOCC5)c4c3C)CC2)c1" and report
Given back: 161

Asked: // repeat for "Cc1c(-c2nnc(-c3ccc([N+](=O)[O-])cc3)o2)sc2ncnc(N3CCCCC3)c12" and report
Given back: 145

###

Quick reference: EC50 of the listed items.
Tested on: PC-12
Procedure summary: Neuroprotective activity against H2O2-induced cytotoxicity in rat PC12 cells assessed as increase in cell viability pretreated for 24 hrs followed by H2O2 addition by MTT assay
Assay type: functional, cell-based
Numeric answer only, unit µg/mL assumed.

Structure	EC50 [µg/mL]
Cc1c(C(=O)OCC#CCN2CCN(c3ccc(Br)cc3C#N)CC2)sc2ncnc(N3CCCCC3)c12	40.9
Cc1c(C(=O)OCC#CCN2CCN(c3cc(C4CC4)ccc3C#N)CC2)sc2ncnc(N3CCOCC3)c12	12.4
COc1ccc(N2CCN(CC#CCOC(=O)c3sc4ncnc(N5CCCCC5)c4c3C)CC2)cc1	35.3
Cc1c(C(=O)OCC#CCN2CCN(c3ccc(Br)cc3C#N)CC2)sc2ncnc(N3CCOCC3)c12	32.3

Asked: # input molecule: "COc1cccc(N2CCN(CC#CCOC(=O)c3sc4ncnc(N5CCOCC5)c4c3C)CC2)c1" ; wanted: its EC50
Given back: 38.4

###

Tested on: PC-12
Procedure summary: Neuroprotective activity against H2O2-induced cytotoxicity in rat PC12 cells assessed as increase in cell viability pretreated for 24 hrs followed by H2O2 addition by MTT assay
Format: functional, cell-based
Observable: EC50 (µg/mL)
Numeric answer only, unit µg/mL assumed.

Known EC50 results, listed for orientation:
Structure	Measured
COc1ccc(N2CCN(CC#CCOC(=O)c3sc4ncnc(N5CCOCC5)c4c3C)CC2)cc1	36.2
Cc1c(-c2nnc(-c3ccccc3)o2)sc2ncnc(N3CCCCC3)c12	22.1

Now for the molecule whose EC50 we want.
Asked: Observed EC50 on PC-12 for "COc1ccc(-c2nnc(-c3sc4ncnc(N5CCCCC5)c4c3C)o2)cc1" , please.
Given back: 20.1

###

Procedure summary: Cytotoxicity against rat PC12 cells assessed as cell viability at CC50 after 24 hrs by MTT assay relative to control
Format: cell-based, PC-12
Experimental conditions: read-out: Activity
Observable: viability at 24 h (%)
Numeric answer only, unit % assumed.

Structure	viability at 24 h / %
Cc1c(-c2nnc(-c3ccc([N+](=O)[O-])cc3)o2)sc2ncnc(N3CCCCC3)c12	49.9

Asked: # input compound: "Cc1c(C(=O)OCC#CCN2CCN(c3ccc(Br)cc3C#N)CC2)sc2ncnc(N3CCOCC3)c12" ; wanted: its viability at 24 h
Given back: 49

Asked: // repeat for "Cc1c(C(=O)OCC#CCN2CCN(c3cc(C4CC4)ccc3C#N)CC2)sc2ncnc(N3CCCCC3)c12" and report
Given back: 50.1

Asked: // repeat for "COc1cccc(N2CCN(CC#CCOC(=O)c3sc4ncnc(N5CCCCC5)c4c3C)CC2)c1" and report
Given back: 51

###

Procedure summary: Cytotoxicity against rat PC12 cells assessed as cell viability at CC50 after 24 hrs by MTT assay relative to control
Type: cell-based, PC-12
Experimental conditions: read-out: Activity
Quick reference: viability at 24 h of the listed items.
Numeric answer only, unit % assumed.

Known viability at 24 h results, listed for orientation:
Structure	Measured
COc1ccc(-c2nnc(-c3sc4ncnc(N5CCOCC5)c4c3C)o2)cc1	51.9
Cc1ccc(-c2nnc(-c3sc4ncnc(N5CCCCC5)c4c3C)o2)cc1	49.2
Cc1c(-c2nnc(-c3ccc([N+](=O)[O-])cc3)o2)sc2ncnc(N3CCOCC3)c12	49.2
COc1ccc(-c2nnc(-c3sc4ncnc(N5CCCCC5)c4c3C)o2)cc1	49.9

Asked: # input compound: "Cc1ccc(-c2nnc(-c3sc4ncnc(N5CCOCC5)c4c3C)o2)cc1" ; wanted: its viability at 24 h
Given back: 49.2
